Entries and their remaining activity at 1 µM
target: COX-2 (Homo sapiens (Human), UniProt P35354); experiment: COX-2 activity, products from LPS-primed human neutrophils; type: cell-based; details: 100% no inhibition, 0% complete inhibition, read-out: % of control COX-2 activity, n = 2
Sequence (P35354 18-604): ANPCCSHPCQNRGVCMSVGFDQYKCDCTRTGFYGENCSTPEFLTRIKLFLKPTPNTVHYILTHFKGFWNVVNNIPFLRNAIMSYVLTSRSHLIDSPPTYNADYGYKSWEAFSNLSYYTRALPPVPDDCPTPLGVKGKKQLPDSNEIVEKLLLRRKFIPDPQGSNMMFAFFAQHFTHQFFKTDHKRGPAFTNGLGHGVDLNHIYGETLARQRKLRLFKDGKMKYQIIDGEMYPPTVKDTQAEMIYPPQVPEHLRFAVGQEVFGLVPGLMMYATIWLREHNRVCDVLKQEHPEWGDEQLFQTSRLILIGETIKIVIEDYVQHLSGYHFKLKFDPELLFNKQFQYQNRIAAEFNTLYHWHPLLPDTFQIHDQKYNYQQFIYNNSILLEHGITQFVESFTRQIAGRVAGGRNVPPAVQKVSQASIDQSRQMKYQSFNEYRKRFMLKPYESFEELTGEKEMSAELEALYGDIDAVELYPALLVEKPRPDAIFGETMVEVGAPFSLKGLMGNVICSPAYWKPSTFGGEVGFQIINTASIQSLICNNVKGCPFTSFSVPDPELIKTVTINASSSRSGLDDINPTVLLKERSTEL
Write the number in % without appending the unit.

Record excerpt, results attached:
Look up and report measured remaining activity at 1 µM (COX-2 (Homo sapiens (Human), UniProt P35354)) for the following compound: O=C(CCc1ccc(O)c(O)c1)OCCCc1ccccc1 [Compound 33]
45.3

# assay system COX-2 (Homo sapiens (Human), UniProt P35354): give remaining activity at 1 µM of O=C(/C=C/c1ccc(O)c(O)c1)OCCCCCc1ccccc1 [Compound 40]
86.4

Retrieve remaining activity at 1 µM on COX-2 (Homo sapiens (Human), UniProt P35354); query O=C(/C=C/c1ccc(O)c(O)c1)OCCCCc1ccccc1 [Compound 39]
90.2

Provide remaining activity at 1 µM, tested on COX-2 (Homo sapiens (Human), UniProt P35354), for O=C(/C=C/c1ccc(O)c(O)c1)OCCCc1ccccc1 [Compound 25] .
81.3

Quote remaining activity at 1 µM with test system COX-2 (Homo sapiens (Human), UniProt P35354) for O=C(CCc1ccc(O)c(O)c1)OCCc1ccccc1 [Compound 32]
69

Consider the additional compound presented here.
Print COX-2 (Homo sapiens (Human), UniProt P35354) remaining activity at 1 µM for O=C(/C=C/c1ccc(O)c(O)c1)NCCCc1ccccc1 [Compound 55] .
101

The reported measurements were obtained from patent US20240425441A9.
